Assay: self-splicing fitness, log relative to wild type (ln ratio); higher = more splicing; Tetrahymena group I intron in knt gene, E. coli kanamycin selection, DiMSum; sequences stand for … in CUCUCU…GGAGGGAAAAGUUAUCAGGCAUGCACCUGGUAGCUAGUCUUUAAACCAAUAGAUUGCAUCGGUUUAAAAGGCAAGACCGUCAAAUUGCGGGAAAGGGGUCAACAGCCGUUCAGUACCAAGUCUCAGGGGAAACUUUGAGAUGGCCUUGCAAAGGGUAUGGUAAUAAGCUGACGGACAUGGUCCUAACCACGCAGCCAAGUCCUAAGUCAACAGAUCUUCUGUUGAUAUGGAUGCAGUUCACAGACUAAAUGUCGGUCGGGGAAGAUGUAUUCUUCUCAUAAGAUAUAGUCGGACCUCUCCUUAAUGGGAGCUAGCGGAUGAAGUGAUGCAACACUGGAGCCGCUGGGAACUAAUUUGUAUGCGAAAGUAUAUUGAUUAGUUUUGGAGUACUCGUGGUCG;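 note: selection with 25 µg/mL kanamycin versus none on LB agar overnight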
Conditions: 37 °C
Property Measured: self-splicing fitness (ln)

Seq Text	Property Measured	Result Number
ACGGAGCAAUAUUACGUCCU	self-splicing fitness (ln)	-1.27
ACGAAGCAAUAUUACGUUAA	self-splicing fitness (ln)	-2.09
CCUCAGCAAUAUUACGUCGG	self-splicing fitness (ln)	-2.59
AUCGAGCAAUAUUACGUCCU	self-splicing fitness (ln)	-0.423
GUUAAGCAAUAUUACGAAAC	self-splicing fitness (ln)	-2.83
AGAAAGCAAUAUUACGGAAC	self-splicing fitness (ln)	-1.84
CACCAGCAAUAUUACGACGA	self-splicing fitness (ln)	-1.54
AAGGAGCAAUAUUACGUGGC	self-splicing fitness (ln)	-2.37
CUCGAGCAAUAUUACGCCAC	self-splicing fitness (ln)	-1.24
CGGCAGCAAUAUUACGCCUC	self-splicing fitness (ln)	-1.59
GACGAGCAAUAUUACGUUCG	self-splicing fitness (ln)	-2.24
UCCAAGCAAUAUUACGCUCG	self-splicing fitness (ln)	-2.28
GUAUAGCAAUAUUACGUUAG	self-splicing fitness (ln)	-1.07
CUACAGCAAUAUUACGGUUU	self-splicing fitness (ln)	-1.31
AAGAAGCAAUAUUACGGCAC	self-splicing fitness (ln)	-0.298
UACAAGCAAUAUUACGCGUC	self-splicing fitness (ln)	-1.23
UGAAAGCAAUAUUACGAUGC	self-splicing fitness (ln)	-2.83
GGCUAGCAAUAUUACGUUAA	self-splicing fitness (ln)	-0.642
CCUCAGCAAUAUUACGUUUG	self-splicing fitness (ln)	-2.15
